Target: Sodium-dependent noradrenaline transporter (Homo sapiens, UniProt P23975)
Sequence (P23975 whole entry): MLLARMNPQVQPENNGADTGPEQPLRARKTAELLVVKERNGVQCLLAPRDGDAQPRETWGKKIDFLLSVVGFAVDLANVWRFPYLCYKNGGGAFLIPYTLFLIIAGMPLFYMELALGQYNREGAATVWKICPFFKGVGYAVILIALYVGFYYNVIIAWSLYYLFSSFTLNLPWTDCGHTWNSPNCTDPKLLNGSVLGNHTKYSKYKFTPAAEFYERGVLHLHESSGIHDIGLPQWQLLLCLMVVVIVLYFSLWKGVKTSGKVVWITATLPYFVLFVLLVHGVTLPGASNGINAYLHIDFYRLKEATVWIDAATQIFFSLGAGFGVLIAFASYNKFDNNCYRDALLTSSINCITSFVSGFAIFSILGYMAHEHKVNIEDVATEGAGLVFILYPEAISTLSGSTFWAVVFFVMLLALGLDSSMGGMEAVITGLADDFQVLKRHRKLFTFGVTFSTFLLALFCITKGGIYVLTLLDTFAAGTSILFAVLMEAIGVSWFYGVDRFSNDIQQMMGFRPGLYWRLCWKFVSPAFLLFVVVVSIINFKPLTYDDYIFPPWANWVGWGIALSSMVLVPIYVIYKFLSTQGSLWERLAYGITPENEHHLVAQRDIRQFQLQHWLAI
pKi: −log10 of the molar value.
Where pKi equals or exceeds 6, the correct label is condition met; where it does not, the label is condition not met.

>>> class_label("CCCC(C(=O)c1ccc(-c2cccn2C)cc1)N1CCCC1 (configuration not stated)")
"condition not met"
>>> class_label("CCCC(C(=O)c1ccc(C#N)cc1)N1CCCC1 (configuration not stated)")
"condition not met"
>>> class_label("Cc1ccc(C(=O)C(CC(C)C)N2CCCC2)cc1 (configuration not stated)")
"condition met"
>>> class_label("CCCC(C(=O)c1ccccc1C)N1CCCC1 (configuration not stated)")
"condition met"
>>> class_label("CCC[C@H](C(=O)c1ccc(C)cc1)N1CCCC1")
"condition not met"
>>> class_label("CCCCNC(CCC)C(=O)c1ccc(Cl)c(Cl)c1 (configuration not stated)")
"condition not met"
>>> class_label("CCCC(C(=O)c1ccc(NC(C)=O)cc1)N1CCCC1 (configuration not stated)")
"condition not met"
>>> class_label("CCCC(C(=O)c1ccc(OC)cc1)N1CCCC1 (configuration not stated)")
"condition not met"
>>> class_label("CCCC(C(=O)c1ccc(C)cc1)N1CCCC1 (configuration not stated)")
"condition met"
>>> class_label("CCCC(CN1CCCC1)C(=O)c1ccc(Cl)c(Cl)c1 (configuration not stated)")
"condition not met"
>>> class_label("CCCC(C(=O)c1ccc(Br)cc1)N1CCCC1 (configuration not stated)")
"condition met"
>>> class_label("CCCC(CN1CCCC1)C(=O)c1ccc(C)cc1 (configuration not stated)")
"condition not met"
>>> class_label("CCCC(C(=O)c1ccc(Cl)c(Cl)c1)N1CCCC1 (configuration not stated)")
"condition met"
>>> class_label("CC#Cc1ccc(C(=O)C(CCC)N2CCCC2)cc1 (configuration not stated)")
"condition met"
>>> class_label("CCCC(C(=O)c1ccc(C(F)(F)F)cc1)N1CCCC1 (configuration not stated)")
"condition not met"
>>> class_label("CCC[C@@H](C(=O)c1ccc(C)cc1)N1CCCC1")
"condition met"
>>> class_label("C#CCC(C(=O)c1ccc(C)cc1)N1CCCC1 (configuration not stated)")
"condition not met"
>>> class_label("CCC(CC(=O)c1ccc(C)cc1)N1CCCC1 (configuration not stated)")
"condition not met"
>>> class_label("CCC(CC(=O)c1ccc(Cl)c(Cl)c1)N1CCCC1 (configuration not stated)")
"condition not met"
>>> class_label("CCCC(C(=O)c1ccccc1)N1CCCC1 (configuration not stated)")
"condition met"
>>> class_label("C=CCC(C(=O)c1ccc(Cl)c(Cl)c1)N1CCCC1 (configuration not stated)")
"condition met"
>>> class_label("CCC(C(=O)c1ccc(Cl)c(Cl)c1)N1CCCC1 (configuration not stated)")
"condition met"
>>> class_label("CCCC(C(=O)c1ccc(-c2cccs2)cc1)N1CCCC1 (configuration not stated)")
"condition met"
>>> class_label("CCCC(C(=O)c1ccc(OC)c(OC)c1)N1CCCC1 (configuration not stated)")
"condition not met"
>>> class_label("CCCC(C(=O)c1ccc(I)cc1)N1CCCC1 (configuration not stated)")
"condition met"
>>> class_label("CCCC(C(=O)c1ccc(O)c(O)c1)N1CCCC1 (configuration not stated)")
"condition met"
>>> class_label("CCCC(C(=O)c1ccc2ccccc2c1)N1CCCC1 (configuration not stated)")
"condition met"
>>> class_label("CCCC(C(=O)c1ccc([N+](=O)[O-])cc1)N1CCCC1 (configuration not stated)")
"condition not met"
>>> class_label("CCCC(C(O)c1ccc(C)cc1)N1CCCC1 (mixture of isomers)")
"condition not met"
>>> class_label("CCCC(C(=O)c1ccc(CO)cc1)N1CCCC1 (configuration not stated)")
"condition met"

* * *

Biological target: Sodium-dependent dopamine transporter (Homo sapiens, UniProt Q01959)
Sequence (Q01959 whole entry): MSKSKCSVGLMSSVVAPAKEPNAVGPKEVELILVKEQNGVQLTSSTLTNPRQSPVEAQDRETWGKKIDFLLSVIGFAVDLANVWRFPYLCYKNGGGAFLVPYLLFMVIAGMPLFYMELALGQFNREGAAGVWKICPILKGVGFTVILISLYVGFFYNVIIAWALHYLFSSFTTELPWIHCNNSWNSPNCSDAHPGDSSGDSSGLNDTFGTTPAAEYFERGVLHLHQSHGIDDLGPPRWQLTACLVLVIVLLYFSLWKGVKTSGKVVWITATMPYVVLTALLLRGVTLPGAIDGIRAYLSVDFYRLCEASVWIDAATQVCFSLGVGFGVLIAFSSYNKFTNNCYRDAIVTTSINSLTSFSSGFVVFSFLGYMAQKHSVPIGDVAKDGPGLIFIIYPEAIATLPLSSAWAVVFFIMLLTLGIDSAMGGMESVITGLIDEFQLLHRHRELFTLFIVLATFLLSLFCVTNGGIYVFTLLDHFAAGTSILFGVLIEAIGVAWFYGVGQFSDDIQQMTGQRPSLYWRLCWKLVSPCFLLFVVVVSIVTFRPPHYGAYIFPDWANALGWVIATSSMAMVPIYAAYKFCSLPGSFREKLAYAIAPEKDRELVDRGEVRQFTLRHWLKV
Experiment: Inhibition of [3H] dopamine uptake into human DAT expressed in HEK293 cells
pIC50: −log10 of the molar value.
Where pIC50 equals or exceeds 7, the correct label is YES; where it does not, the label is NO.

>>> class_label("CCC(CC(=O)c1ccc(Cl)c(Cl)c1)N1CCCC1 (configuration not stated)")
"NO"
>>> class_label("CCCC(CN1CCCC1)C(=O)c1ccc(Cl)c(Cl)c1 (configuration not stated)")
"NO"
>>> class_label("CCCC(C(=O)c1ccc(I)cc1)N1CCCC1 (configuration not stated)")
"YES"
>>> class_label("CCCC(C(=O)c1ccc(CO)cc1)N1CCCC1 (configuration not stated)")
"YES"
>>> class_label("CCCC(C(=O)c1ccc(Cl)c(Cl)c1)N1CCCC1 (configuration not stated)")
"YES"
>>> class_label("CCCC(C(=O)c1ccc([N+](=O)[O-])cc1)N1CCCC1 (configuration not stated)")
"NO"
>>> class_label("CCC[C@H](C(=O)c1ccc(C)cc1)N1CCCC1")
"NO"
>>> class_label("C=CCC(C(=O)c1ccc(Cl)c(Cl)c1)N1CCCC1 (configuration not stated)")
"YES"
>>> class_label("CCCC(C(=O)c1ccc(F)cc1)N1CCCC1 (configuration not stated)")
"NO"
>>> class_label("CCCC(C(=O)c1ccc(OC)cc1)N1CCCC1 (configuration not stated)")
"NO"
>>> class_label("CCCC(C(=O)c1ccc(C#N)cc1)N1CCCC1 (configuration not stated)")
"NO"
>>> class_label("C=CCC(C(=O)c1ccc(C)cc1)N1CCCC1 (configuration not stated)")
"YES"
>>> class_label("CCCC(C(=O)c1ccc(-c2cccn2C)cc1)N1CCCC1 (configuration not stated)")
"NO"
>>> class_label("CCCC(C(=O)c1ccc(O)cc1)N1CCCC1 (configuration not stated)")
"YES"
>>> class_label("CCCC(C(=O)c1ccc2ccccc2c1)N1CCCC1 (configuration not stated)")
"YES"

* * *

Each entry below carries its recorded Ki.
Target: Sodium-dependent serotonin transporter (Homo sapiens)
Sequence (P31645 whole entry): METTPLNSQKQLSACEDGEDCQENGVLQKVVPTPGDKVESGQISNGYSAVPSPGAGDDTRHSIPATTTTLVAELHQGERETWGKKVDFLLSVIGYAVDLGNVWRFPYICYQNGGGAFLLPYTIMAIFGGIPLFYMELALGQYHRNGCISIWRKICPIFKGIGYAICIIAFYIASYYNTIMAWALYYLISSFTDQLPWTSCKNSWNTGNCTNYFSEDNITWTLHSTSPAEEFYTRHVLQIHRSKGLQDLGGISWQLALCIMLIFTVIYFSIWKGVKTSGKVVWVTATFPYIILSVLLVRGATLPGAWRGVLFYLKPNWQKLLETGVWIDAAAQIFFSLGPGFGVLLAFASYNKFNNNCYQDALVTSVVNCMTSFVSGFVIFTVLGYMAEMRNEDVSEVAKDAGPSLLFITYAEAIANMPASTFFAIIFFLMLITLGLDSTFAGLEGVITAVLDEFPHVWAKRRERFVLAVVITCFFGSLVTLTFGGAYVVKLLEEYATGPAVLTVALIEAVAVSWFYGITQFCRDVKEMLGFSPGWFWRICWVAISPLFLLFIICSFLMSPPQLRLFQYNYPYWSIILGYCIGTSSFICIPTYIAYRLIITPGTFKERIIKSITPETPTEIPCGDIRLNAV
Quantity name: Ki

>>> endpoint_result("CCCC(C(=O)c1ccc(F)cc1)N1CCCC1 (stereo not drawn)")
"> 10 µM"
>>> endpoint_result("CCC(CC(=O)c1ccc(C)cc1)N1CCCC1 (stereo not drawn)")
"> 10 µM"
>>> endpoint_result("CCCC(C(=O)c1ccc(O)cc1)N1CCCC1 (stereo not drawn)")
"> 10 µM"

Source of measurements: ChEMBL document CHEMBL1138144
